For each of the compounds below, state its solubility kinetic.
# Assay: Kinetic solubility of the compound at pH 7.4
# Format: physicochemical
# Run Parameters: buffer, read-out: Kinetic_solubility
Give bare numbers, in µM.

> print(dat)
                                   compound  unit.annotation  value.measured
1  COc1ccc2nccc(C(c3nnnn3C(C)(C)C)N3CCOCC3)c2c1 (stereo not given)               µM             179
2  CCN(CC)C(c1ccnc2ccc(OC)cc12)c1nnnn1C(C)(C)C (stereo not given)               µM             137
3  COc1ccc2nccc(C(c3nnn[nH]3)N3CCOCC3)c2c1 (stereo not given)               µM             202
4  COc1ccc2nccc(C(c3nnnn3C(C)(C)C)N(C)C)c2c1 (stereo not given)               µM             189

Fill in: solubility kinetic of COc1ccc2nccc(C(c3nnnn3C(C)(C)C)N3CCCCC3)c2c1 (stereo not given) is ___
114
